Reference source: patent US20240174690A1

- target-or-test-system: KRAS (G12D)::SOS1 (Homo sapiens (Human), UniProt P01116, G12D)
- Sequence (P01116 other isoform, or with tags, fused parts or gaps G12D): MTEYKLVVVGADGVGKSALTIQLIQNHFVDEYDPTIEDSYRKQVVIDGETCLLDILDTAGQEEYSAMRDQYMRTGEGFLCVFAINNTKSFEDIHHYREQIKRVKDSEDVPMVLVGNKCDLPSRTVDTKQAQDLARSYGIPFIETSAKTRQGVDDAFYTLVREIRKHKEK
- test-name: KRAS::SOS1 AlphaScreen binding assay, KRAS G12D
pIC50: −log10 of the molar value.
recorded-endpoint: pIC50

compound	target-or-test-system	pIC50
C[C@H](NC(=O)c1ccn(-c2cc(O[C@@H](C)[C@@H]3CCCN3C)nc(-c3noc4c3CCC[C@@]43CCCc4sc(N)c(C#N)c43)n2)n1)c1ccccn1 [II-191]	KRAS (G12D)::SOS1 (Homo sapiens (Human), UniProt P01116, G12D)	9.00
C[C@H](Oc1cc(N2CCOC3(CC3)C2)nc(-c2noc3c2CCC[C@@]32CCCc3sc(N)c(C#N)c32)n1)[C@@H]1CCCN1C [II-61]	KRAS (G12D)::SOS1 (Homo sapiens (Human), UniProt P01116, G12D)	8.52
C[C@H](Oc1cc(-n2ccnc2)nc(-c2noc3c2CCC[C@@]32CCCc3sc(N)c(C#N)c32)n1)[C@@H]1CCCN1C [II-69]	KRAS (G12D)::SOS1 (Homo sapiens (Human), UniProt P01116, G12D)	8.70
C[C@H](Oc1cc(N2CCNC3(COC3)C2)nc(-c2onc3c2CCC[C@@]32CCCc3sc(N)c(C#N)c32)n1)[C@@H]1CCCN1C [I-4]	KRAS (G12D)::SOS1 (Homo sapiens (Human), UniProt P01116, G12D)	9.00
CC(C)N1CCCN(c2cc(-n3ccnc3)nc(-c3noc4c3CCC[C@@]43CCCc4sc(N)c(C#N)c43)n2)[C@@H](C)C1 [II-169]	KRAS (G12D)::SOS1 (Homo sapiens (Human), UniProt P01116, G12D)	8.05
CO[C@H]1CCN(C)[C@@H]1[C@H](C)Oc1cc(-n2ccc(C(=O)N[C@H]3CCOC3)n2)nc(-c2noc3c2CCC[C@@]32CCCc3sc(N)c(C#N)c32)n1 [II-198]	KRAS (G12D)::SOS1 (Homo sapiens (Human), UniProt P01116, G12D)	9.00
C[C@H](Oc1nc(-c2onc3c2CCC[C@@]32CCCc3sc(N)c(C#N)c32)cc(N2CCN(C)C3(CC3)C2)n1)[C@@H]1CCCN1C [I-40]	KRAS (G12D)::SOS1 (Homo sapiens (Human), UniProt P01116, G12D)	8.22
C[C@H](Oc1cc(N2CCCC3(COC3)C2)nc(-c2noc3c2CCC[C@@]32CCCc3sc(N)c(C#N)c32)n1)[C@@H]1CCCN1C [II-72]	KRAS (G12D)::SOS1 (Homo sapiens (Human), UniProt P01116, G12D)	8.70

1. CO[C@H]1CCN(C)[C@@H]1[C@H](C)Oc1cc(-n2ccc(CC(=O)NC(C)C)n2)nc(-c2onc3c2CCC[C@@]32CCCc3sc(N)c(C#N)c32)n1 [I-48]
2. C[C@H](O)Cn1ncc(-c2cc(O[C@@H](C)[C@@H]3CCCN3C)nc(-c3noc4c3CCC[C@@]43CCCc4sc(N)c(C#N)c43)n2)n1 [II-134]
Challenge: Which shows the larger pIC50 value: 1 or 2 ? Kindly state the label of the option you pick.
Response given: 1

P. CO[C@H]1CCN(C)[C@@H]1[C@H](C)Oc1cc(N2CCNC3(CC3)C2)nc(-c2onc3c2CCC[C@@]32CCCc3sc(N)c(C#N)c32)n1 [I-49]
Q. C[C@H](Oc1cc(-n2ccnc2)nc(-c2onc3c2CCC[C@@]32CCCc3sc(N)c(C#N)c32)n1)[C@@H]1CCCN1C [I-20]
R. C[C@H](Oc1cc(-n2nccc2-c2ccncc2)nc(-c2noc3c2CCC[C@@]32CCCc3sc(N)c(C#N)c32)n1)[C@@H]1CCCN1C [II-131]
Challenge: Hey, can you sort those compounds up there by pIC50, smallest first? Response format: the labels, sorted as the prompt asks.
Response given: R, Q, P

----------
- test-name: Metabolic (microsomal) stability assay, human liver microsomes (HLM)
- Type: in vitro ADME
- particulars: predicted clearance as percent of liver blood flow, 1 μM
recorded-endpoint: HLM QH (%)

smiles-notation	HLM QH / %
C[C@@H]1CN(c2cc(O[C@@H](C)[C@@H]3C[C@@H](F)CN3C)nc(-c3noc4c3CCC[C@@]43CCCc4sc(N)c(C#N)c43)n2)CC2(CC2)N1	63
COCCNC(=O)c1ccn(-c2cc(O[C@@H](C)[C@@H]3CCCN3C)nc(-c3onc4c3CCC[C@@]43CCCc4sc(N)c(C#N)c43)n2)n1	34
C[C@H](Oc1cc(-n2cnc(C(=O)N(C)C)c2)nc(-c2noc3c2CCC[C@@]32CCCc3sc(N)c(C#N)c32)n1)[C@@H]1CCCN1C	25
C[C@H](Oc1cc(-n2ccnc2)nc(-c2onc3c2CCC[C@@]32CCCc3sc(N)c(C#N)c32)n1)[C@@H]1CCCN1C	30
C[C@H](Oc1cc(-n2cncn2)nc(-c2onc3c2CCC[C@@]32CCCc3sc(N)c(C#N)c32)n1)[C@@H]1CCCN1C	48

I. C[C@H](Oc1cc(-n2ccc(C(=O)N(C)C3COC3)n2)nc(-c2noc3c2CCC[C@@]32CCCc3sc(N)c(C#N)c32)n1)[C@@H]1CCCN1C
II. C[C@H](Oc1cc(-n2ccnn2)nc(-c2noc3c2CCC[C@@]32CCCc3sc(N)c(C#N)c32)n1)[C@@H]1CCCN1C
Challenge: I would appreciate it if you could say which entry, I or II , has the lower HLM QH value. Kindly state the label of the option you pick.
Response given: I

----------
- Test system: SAS cells
- test-name: SAS CTG proliferation assay (120 h) (HNSCC, wt amplified)
- Assay type: cell-based
recorded-endpoint: IC50 (nM)
Kindly provide the numeric value in nM only, without the unit symbol.

molecule	unit-of-measurement	IC50
C[C@H](Oc1cc(N2CC[C@H](N(C)C)C2)nc(-c2noc3c2CCC[C@@]32CCCc3sc(N)c(C#N)c32)n1)[C@@H]1CCCN1C [II-49]	nM	1180

Challenge: GET IC50 | system: SAS cells | item: C[C@H](Oc1cc(-c2cnn(C)n2)nc(-c2noc3c2CCC[C@@]32CCCc3sc(N)c(C#N)c32)n1)[C@@H]1CCCN1C [II-86]
Response given: 502

Challenge: GET IC50 | system: SAS cells | item: C[C@H](Oc1cc(-n2cc3ccn(C4CCOCC4)c(=O)c3n2)nc(-c2noc3c2CCC[C@@]32CCCc3sc(N)c(C#N)c32)n1)[C@@H]1CCCN1C [II-206]
Response given: 25

Challenge: GET IC50 | system: SAS cells | item: C[C@H](Oc1cc(-n2ccnn2)nc(-c2onc3c2CCC[C@@]32CCCc3sc(N)c(C#N)c32)n1)[C@@H]1CCCN1C [I-32]
Response given: 52

Challenge: GET IC50 | system: SAS cells | item: C[C@H](Oc1cc(-c2ccn([C@H]3CCOC3)n2)nc(-c2noc3c2CCC[C@@]32CCCc3sc(N)c(C#N)c32)n1)[C@@H]1CCCN1C [II-127]
Response given: 18

Challenge: GET IC50 | system: SAS cells | item: C[C@H](Oc1cc(Cl)nc(-c2onc3c2CCC[C@@]32CCCc3sc(N)c(C#N)c32)n1)[C@@H]1CCCN1C [I-1]
Response given: 2880

----------
- target-or-test-system: KRAS (G12D)::SOS1 (Homo sapiens (Human), UniProt P01116, G12D)
- test-name: KRAS::SOS1 AlphaScreen binding assay, KRAS G12D
pIC50: −log10 of the molar value.
recorded-endpoint: pIC50

molecule	pIC50
COC(=O)c1ccc(-c2cc(O[C@@H](C)[C@@H]3CCCN3C)nc(-c3noc4c3CCC[C@@]43CCCc4sc(N)c(C#N)c43)n2)o1 [II-114]	8.52

1. C[C@H](Oc1cc(N2CCNC3(CC3)C2)nc(-c2noc3c2CCC[C@@]32CCCc3sc(N)c(C#N)c32)n1)[C@@H]1CCCN1C [II-54]
2. C[C@H]1CN(C)CCCN1c1nc(-c2onc3c2CCC[C@@]32CCCc3sc(N)c(C#N)c32)cc(N2CCN(C)C3(CC3)C2)n1 [I-42]
3. C[C@H](Oc1cc(-c2ccn(C)n2)nc(-c2noc3c2CCC[C@@]32CCCc3sc(N)c(C#N)c32)n1)[C@@H]1C[C@H](F)CN1C [II-144]
Challenge: Rank entries according to their pIC50, from the largest number down. Response format: the labels, sorted as the prompt asks.
Response given: 1, 3, 2

----------
- target-or-test-system: KRAS (G12C)::SOS1 (Homo sapiens (Human), UniProt P01116, C118S/C51S/C80L/G12C)
- Sequence (P01116 other isoform, or with tags, fused parts or gaps G12C/C51S/C80L/C118S): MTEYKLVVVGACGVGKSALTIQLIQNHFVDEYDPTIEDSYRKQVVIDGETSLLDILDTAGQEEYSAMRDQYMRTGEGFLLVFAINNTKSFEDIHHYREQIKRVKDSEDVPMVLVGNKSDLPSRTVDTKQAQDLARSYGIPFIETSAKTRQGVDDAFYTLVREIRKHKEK
- test-name: KRAS::SOS1 AlphaScreen binding assay, KRAS G12C
pIC50: −log10 of the molar value.
recorded-endpoint: pIC50

smiles-notation	target-or-test-system	pIC50
C[C@H](Oc1cc(-c2ccn(C)n2)nc(-c2noc3c2CCC[C@@]32CCCc3sc(N)c(C#N)c32)n1)[C@@H]1C[C@@H](F)CN1C	KRAS (G12C)::SOS1 (Homo sapiens (Human), UniProt P01116, C118S/C51S/C80L/G12C)	8.70
C[C@H](Oc1cc(-n2cc(Cn3cncn3)nn2)nc(-c2noc3c2CCC[C@@]32CCCc3sc(N)c(C#N)c32)n1)[C@@H]1CCCN1C	KRAS (G12C)::SOS1 (Homo sapiens (Human), UniProt P01116, C118S/C51S/C80L/G12C)	8.70
C[C@H](Oc1cc(N2CCCC2=O)nc(-c2noc3c2CCC[C@@]32CCCc3sc(N)c(C#N)c32)n1)[C@@H]1CCCN1C	KRAS (G12C)::SOS1 (Homo sapiens (Human), UniProt P01116, C118S/C51S/C80L/G12C)	8.52
C[C@H]1CN(C)CCCN1c1cc(N2CCN(C)CC2)nc(-c2noc3c2CCC[C@@]32CCCc3sc(N)c(C#N)c32)n1	KRAS (G12C)::SOS1 (Homo sapiens (Human), UniProt P01116, C118S/C51S/C80L/G12C)	7.72
C[C@H]1CNCCCN1c1nc(-c2onc3c2CCC[C@@]32CCCc3sc(N)c(C#N)c32)cc(C(F)(F)F)n1	KRAS (G12C)::SOS1 (Homo sapiens (Human), UniProt P01116, C118S/C51S/C80L/G12C)	6.52

P. C[C@H](Oc1cc(-c2cn(C3CCOCC3)nn2)nc(-c2noc3c2CCC[C@@]32CCCc3sc(N)c(C#N)c32)n1)[C@@H]1CCCN1C
Q. C[C@H](Oc1cc(N2CC(N(C)C)C2)nc(-c2noc3c2CCC[C@@]32CCCc3sc(N)c(C#N)c32)n1)[C@@H]1CCCN1C
Challenge: Which shows the larger pIC50 value: P or Q ? Kindly state the label of the option you pick.
Response given: Q
(Q: 8.30, P: 8.10)
